test system: CP194; assay: qHTS profiling for inhibitors of Plasmodium falciparum proliferation (AID 504749); also: nearly all actives have a fitted effect of over 60% in size; conditions: P. falciparum in erythrocytes, SYBR Green DNA, 72 h; series mostly up to 28.7 µM
Results filed as inconclusive are left out. The source made the active and inactive calls. Calls follow the shape of the dose curve; as a rule, active = well fitted inhibition curve with a large enough effect; inconclusive = small, poorly fitted or top-dose-only effect; inactive = flat fitted curve, though single readings scatter.
Outcomes: label 1 = active, label 0 = inactive

                               smiles_entry  category
0             CCOc1ccc2nc3cc(N)ccc3c(N)c2c1   label 1
1               O=C(Nc1ccc(Cl)c(Cl)c1)C1CC1   label 0
2                   CCN(CC)C(=O)N1CCN(C)CC1   label 0
3               O=C1c2ccccc2C(=O)C1c1ccccc1   label 0
4                     CN1CCC[C@@H]1c1cccnc1   label 0
5  C[C@]12CC[C@@H]3c4ccc(O)cc4CC[C@H]3[C@@H]1CC[C@@H]2O   label 0
6       O=C1OCCN1/N=C/c1ccc([N+](=O)[O-])o1   label 0

---

Below: a set of entries, each annotated with reported activity, negative = cell killing.
assay: Drug repurposing screens with cells derived from glioblastoma tumor samples (AID 1345199); conditions: GBM patient neurospheres viability, ATP luminescence, 48 h; at 21.2 µM (top of the series); tumour line B; also: % is scaled to controls: 0 for no effect and ±100 for the full control effect; nearly all actives have a fitted effect of over 40% in size
Inconclusive results are not listed. Activity calls are given as the source filed them. Calls come from the whole dose curve; as a rule, active = well fitted inhibition curve with a large enough effect; inconclusive = small, poorly fitted or top-dose-only effect; inactive = flat fitted curve, though single readings scatter.
property-measured: activity, negative = cell killing

In [3]: df
Out[3]:
                                   molecule    endpoint_result
0  CC(=O)CC(c1ccc([N+](=O)[O-])cc1)c1c(O)c2ccccc2oc1=O (centres undefined)    -11% (inactive)
1  CC(=O)[C@H]1CC[C@H]2[C@@H]3C[C@H](C)C4=CC(=O)CC[C@]4(C)[C@H]3[C@@H](O)C[C@]12C  -24.6% (inactive)
2              CC[C@@H](CO)NCCN[C@@H](CC)CO      2% (inactive)
3  COc1ccc(OC)c(C(O)CNC(=O)CN)c1 (centres undefined)  -10.1% (inactive)

---

assay: qHTS of pediatric cancer cell lines to identify multiple opportunities for drug repurposing: Primary screen for control Hh wild type fibroblast cells (AID 1347106); conditions: Hh wild-type fibroblast viability, CellTiter-Glo luminescence, 48 h; series mostly up to 46 µM;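 also: % is scaled to controls: 0 for no effect and ±100 for the full control effect; a drop in luminescence marks cytotoxicity and a rise apparent proliferation; nearly all actives have a fitted effect of over 55% in size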
Inconclusive results are not listed. Activity calls are given as the source filed them. The call rests on the fitted dose curve; in most records, active means well fitted cell-killing curve with a large enough effect; inconclusive means small, poorly fitted or top-dose-only effect; inactive means flat fitted curve, though single readings scatter.
property-measured: outcome

In [3]: df
Out[3]:
                               smiles_entry  endpoint_result
0  C[C@]12CC[C@H]3[C@@H](CCC4=CC(=O)CC[C@@]43C)[C@@H]1CC[C@@H]2C(=O)CO         inactive
1           CN=C(NC#N)NCCSCc1csc(N=C(N)N)n1         inactive
2         CN(C)CCCOc1nn(Cc2ccccc2)c2ccccc12         inactive
3  CC1(C)O[C@@H]2C[C@H]3[C@@H]4C[C@H](F)C5=CC(=O)CC[C@]5(C)[C@H]4[C@@H](O)C[C@]3(C)[C@]2(C(=O)CO)O1         inactive
4  NC(=NCCCCCCN=C(N)/N=C(\N)Nc1ccc(Cl)cc1)/N=C(\N)Nc1ccc(Cl)cc1         inactive
